Where these numbers come from: the NIST ThermoML archive (doi:10.1016/j.jct.2018.05.003)

Test: activity coefficient (dimensionless); of the first substance listed, at infinite dilution; xn = mol fraction of the nth substance listed
Details: 298.15 K; 101.33 kPa; Liquid; Chromatography; x1 = 0
Quick reference: activity coefficient of the listed items.
Could you respond with only the numeric value?

Known activity coefficient results, listed for orientation:
Fc1ccccc1 [fluorobenzene] + CCCCCOC(C)=O : 0.61
C=CCCCC [hex-1-ene] + CCCCCOC(C)=O : 1.22

Task item: Assign activity coefficient to the following record: C1CCOC1 [tetrahydrofuran] + CCCCCOC(C)=O
Reply: 0.8

Task item: Assign activity coefficient to the following record: ClC(Cl)Cl [trichloromethane] + CCCCCOC(C)=O
Reply: 0.27

Task item: Assign activity coefficient to the following record: CCCCCCCCCC [decane] + CCCCCOC(C)=O
Reply: 2.5

Task item: Assign activity coefficient to the following record: CCCCCC [hexane] + CCCCCOC(C)=O
Reply: 1.74

Task item: Assign activity coefficient to the following record: CCOC(C)=O [ethyl acetate] + CCCCCOC(C)=O
Reply: 0.96

Task item: Assign activity coefficient to the following record: C=CCCCCC=C [1,7-octadiene] + CCCCCOC(C)=O
Reply: 1.14

---

Quick reference: activity coefficient of the listed items.
Assay: activity coefficient (dimensionless); of the first substance listed, at infinite dilution; xn = mol fraction of the nth substance listed
Settings: 298.15 K; 101.33 kPa; Liquid; Chromatography; x1 = 0
Could you respond with only the numeric value?

C=CCCCCC [1-heptene] + CCCCCOC(C)=O : 1.35

Task item: Assign activity coefficient to the following record: C1CCCCC1 [cyclohexane] + CCCCCOC(C)=O
Reply: 1.51

Task item: Assign activity coefficient to the following record: c1ccccc1 [benzene] + CCCCCOC(C)=O
Reply: 0.73

Task item: Assign activity coefficient to the following record: C#CCCCCCC [1-octyne] + CCCCCOC(C)=O
Reply: 0.85

Task item: Assign activity coefficient to the following record: C1=CCCCC1 [cyclohexene] + CCCCCOC(C)=O
Reply: 1.16

---

Settings: Crystal; visual observation
Quick reference: Normal melting temperature of the listed items.
Note: unit °C is implicit; provide only the numeric part.

Known Normal melting temperature results, listed for orientation:
O=S(=O)(c1ccccc1)c1ccccc1 [diphenyl sulfone] : 125.1
O=C(O)c1ccccc1 [benzoic acid] : 122.5

// next item, Normal melting temperature requested
Task item: Assign Normal melting temperature to the following record: O=C(O)c1cc([N+](=O)[O-])ccc1Cl [2-chloro-5-nitrobenzoic acid]
Reply: 167.0

---

Test: activity coefficient (dimensionless); of the first substance listed, at infinite dilution; xn = mol fraction of the nth substance listed
Conditions: 298.15 K; 101.33 kPa; Liquid; Chromatography; x1 = 0
measured.property: activity coefficient
Could you respond with only the numeric value?

Known activity coefficient results, listed for orientation:
CC#N [acetonitrile] + CCCCCOC(C)=O : 1.69
Cc1ccc(C)cc1 [1,4-dimethylbenzene] + CCCCCOC(C)=O : 0.92
Cc1ccccc1 [toluene] + CCCCCOC(C)=O : 0.86
CCc1ccccc1 [ethylbenzene] + CCCCCOC(C)=O : 0.98

Task item: Assign activity coefficient to the following record: CCCCCl [1-chlorobutane] + CCCCCOC(C)=O
Reply: 0.84

Task item: Assign activity coefficient to the following record: CCCCCCCCC [nonane] + CCCCCOC(C)=O
Reply: 2.17

Task item: Assign activity coefficient to the following record: CCO [ethanol] + CCCCCOC(C)=O
Reply: 2.97
